# System: Homo sapiens (human subject panel, olfactory perception)
# method_summary: perceived odor intensity rating (rating 0-100); higher = stronger perceived smell
# settings: odor dilution in paraffin oil: 1/1,000

{"compound": "CC(C)C(=O)OCc1ccc2c(c1)OCO2 [Piperonyl isobutyrate]", "perceived odor intensity rating": 29.4}
{"compound": "C=CCOC(=O)c1ccccc1N [Allyl anthranilate]", "perceived odor intensity rating": 55.1}
{"compound": "CC1CCC(=O)C1=O (stereo not given)", "perceived odor intensity rating": 72}
{"compound": "Cc1ccc(C(C)C)cc1", "perceived odor intensity rating": 66.4}
{"compound": "CC(C)c1ccc(CO)cc1", "perceived odor intensity rating": 31.9}
{"compound": "CC1=CCC2CC1C2(C)C (stereo not given)", "perceived odor intensity rating": 61.4}
{"compound": "II", "perceived odor intensity rating": 32.4}
{"compound": "CCOC(=O)CC [ethyl propionate]", "perceived odor intensity rating": 75.7}
{"compound": "N=C(N)NCCC[C@H](N)C(=O)O", "perceived odor intensity rating": 20.4}
{"compound": "O=C1CCCCCC1", "perceived odor intensity rating": 69}
{"compound": "C/C=C(\\C)C(=O)OCC/C=C\\CC [cis-3-Hexenyl tiglate]", "perceived odor intensity rating": 45.7}
{"compound": "O.O.O=P([O-])([O-])O.[Na+].[Na+] [Sodium phosphate dibasic]", "perceived odor intensity rating": 24.1}
{"compound": "COc1cc(C(C)=O)ccc1O", "perceived odor intensity rating": 35}
{"compound": "COc1ccc2ccccc2c1", "perceived odor intensity rating": 71.5}
{"compound": "CCCCC1OC(=O)CC1C (stereo not given)", "perceived odor intensity rating": 71.3}

Hey, just so you know, these numbers are from the supplement of paper PMC4977894.
